System: Acinetobacter baumannii
Experiment: Antibacterial activity against multidrug-resistant Acinetobacter baumannii K63-58 producing oxcillinase-23 cultured in MHB medium assessed as reduction in bacterial growth incubated for 24 hrs by microdilution susceptibility test
Type: functional
Settings: K63-58, 24 h
Quick reference: MIC of the listed items.

{"compound_string": "NCCNC(=O)C(CN)(Cc1cc(C(F)(F)F)cc(C(F)(F)F)c1)Cc1cc(C(F)(F)F)cc(C(F)(F)F)c1", "unit_descriptor": "µg/mL", "qualifier_symbol": "=", "MIC": 8}
{"compound_string": "NCCNC(=O)C(CN)(Cc1ccc(C(F)(F)F)cc1)Cc1ccc(C(F)(F)F)cc1", "unit_descriptor": "µg/mL", "qualifier_symbol": ">", "MIC": 32}
{"compound_string": "NCCNC(=O)C(CN)(Cc1cc(Br)cc(Br)c1)Cc1cc(Br)cc(Br)c1", "unit_descriptor": "µg/mL", "qualifier_symbol": "=", "MIC": 32}
{"compound_string": "NCCNCC(CN)(Cc1cc(C(F)(F)F)cc(C(F)(F)F)c1)Cc1cc(C(F)(F)F)cc(C(F)(F)F)c1", "unit_descriptor": "µg/mL", "qualifier_symbol": "=", "MIC": 8}
{"compound_string": "NCCNCC(CN)(Cc1ccc(F)c2ccccc12)Cc1ccc(F)c2ccccc12", "unit_descriptor": "µg/mL", "qualifier_symbol": "=", "MIC": 8}
{"compound_string": "NCCNC(=O)C(CN)(Cc1ccccc1C(F)(F)F)Cc1ccccc1C(F)(F)F", "unit_descriptor": "µg/mL", "qualifier_symbol": ">", "MIC": 32}
{"compound_string": "N=C(N)NCCNC(=O)C(CNC(=N)N)(Cc1cc(C(F)(F)F)cc(C(F)(F)F)c1)Cc1cc(C(F)(F)F)cc(C(F)(F)F)c1", "unit_descriptor": "µg/mL", "qualifier_symbol": ">", "MIC": 32}
{"compound_string": "N#CC(Cc1cc(C(F)(F)F)cc(C(F)(F)F)c1)(Cc1cc(C(F)(F)F)cc(C(F)(F)F)c1)C(=O)NCCN", "unit_descriptor": "µg/mL", "qualifier_symbol": ">", "MIC": 32}

* * *

Test system: Staphylococcus aureus
Experiment: Antibacterial activity against multidrug-resistant Staphylococcus aureus 85/2082 cultured in MHB medium assessed as reduction in bacterial growth incubated for 24 hrs by microdilution susceptibility test
Format: functional
Conditions: 85/2082, 24 h
Quick reference: MIC of the listed items.

{"compound_string": "N=C(N)NCCNC(=O)C(CNC(=N)N)(Cc1cc(C(F)(F)F)cc(C(F)(F)F)c1)Cc1cc(C(F)(F)F)cc(C(F)(F)F)c1", "qualifier_symbol": "=", "MIC [µg/mL]": 8}
{"compound_string": "NCCNCC(CN)(Cc1cc(C(F)(F)F)cc(C(F)(F)F)c1)Cc1cc(C(F)(F)F)cc(C(F)(F)F)c1", "qualifier_symbol": "=", "MIC [µg/mL]": 8}
{"compound_string": "NCCNCC(CN)(Cc1ccccc1Br)Cc1ccccc1Br", "qualifier_symbol": "=", "MIC [µg/mL]": 8}
{"compound_string": "NCCNCC(CN)(Cc1ccc(F)c2ccccc12)Cc1ccc(F)c2ccccc12", "qualifier_symbol": "=", "MIC [µg/mL]": 4}
{"compound_string": "NCCNC(=O)C(CN)(Cc1ccccc1C(F)(F)F)Cc1ccccc1C(F)(F)F", "qualifier_symbol": ">", "MIC [µg/mL]": 32}
{"compound_string": "NCCNC(=O)C(CN)(Cc1ccc(F)c2ccccc12)Cc1ccc(F)c2ccccc12", "qualifier_symbol": "=", "MIC [µg/mL]": 8}
{"compound_string": "N=C(N)NCCNC(=O)C(CNC(=N)N)(Cc1cc(Br)cc(Br)c1)Cc1cc(Br)cc(Br)c1", "qualifier_symbol": "=", "MIC [µg/mL]": 2}
{"compound_string": "NCCNC(=O)C(CN)(Cc1ccc(C(F)(F)F)cc1)Cc1ccc(C(F)(F)F)cc1", "qualifier_symbol": ">", "MIC [µg/mL]": 32}
{"compound_string": "N=C(N)NCCNC(=O)C(CNC(=N)N)(Cc1ccc(F)c2ccccc12)Cc1ccc(F)c2ccccc12", "qualifier_symbol": "=", "MIC [µg/mL]": 4}

* * *

Experiment: Aqueous solubility of the compound in DMSO
Format: physicochemical
readout_name: solubility

{"compound_string": "N#CC(Cc1ccc(F)c2ccccc12)(Cc1ccc(F)c2ccccc12)C(=O)NCCN", "endpoint_result": "Soluble"}
{"compound_string": "N#CC(Cc1cc(F)cc(F)c1)(Cc1cc(F)cc(F)c1)C(=O)NCCN", "endpoint_result": "Soluble"}
{"compound_string": "N#CC(Cc1ccccc1Br)(Cc1ccccc1Br)C(=O)NCCN", "endpoint_result": "Soluble"}

* * *

Quick reference: MIC of the listed items.
Test system: Escherichia coli
Experiment: Antibacterial activity against multidrug-resistant Escherichia coli 50579417 producing oxcillinase-48 cultured in MHB medium assessed as reduction in bacterial growth incubated for 24 hrs by microdilution susceptibility test
Format: functional
Conditions: Escherichia coli, 50579417, 24 h

{"compound_string": "N=C(N)NCCNC(=O)C(CNC(=N)N)(Cc1cc(C(F)(F)F)cc(C(F)(F)F)c1)Cc1cc(C(F)(F)F)cc(C(F)(F)F)c1", "qualifier_symbol": "=", "MIC [µg/mL]": 32}
{"compound_string": "NCCNCC(CN)(Cc1ccc(F)c2ccccc12)Cc1ccc(F)c2ccccc12", "qualifier_symbol": "=", "MIC [µg/mL]": 8}
{"compound_string": "NCCNC(=O)C(CN)(Cc1ccccc1C(F)(F)F)Cc1ccccc1C(F)(F)F", "qualifier_symbol": ">", "MIC [µg/mL]": 32}
{"compound_string": "NCCNC(=O)C(CN)(Cc1ccc(C(F)(F)F)cc1)Cc1ccc(C(F)(F)F)cc1", "qualifier_symbol": ">", "MIC [µg/mL]": 32}
{"compound_string": "NCCNC(=O)C(CN)(Cc1cc(C(F)(F)F)cc(C(F)(F)F)c1)Cc1cc(C(F)(F)F)cc(C(F)(F)F)c1", "qualifier_symbol": "=", "MIC [µg/mL]": 16}
{"compound_string": "N#CC(Cc1cc(C(F)(F)F)cc(C(F)(F)F)c1)(Cc1cc(C(F)(F)F)cc(C(F)(F)F)c1)C(=O)NCCN", "qualifier_symbol": ">", "MIC [µg/mL]": 32}
{"compound_string": "NCCNCC(CN)(Cc1cc(C(F)(F)F)cc(C(F)(F)F)c1)Cc1cc(C(F)(F)F)cc(C(F)(F)F)c1", "qualifier_symbol": "=", "MIC [µg/mL]": 8}
{"compound_string": "NCCNC(=O)C(CN)(Cc1cc(Br)cc(Br)c1)Cc1cc(Br)cc(Br)c1", "qualifier_symbol": "=", "MIC [µg/mL]": 8}
{"compound_string": "NCCNC(=O)C(CN)(Cc1ccc(F)c2ccccc12)Cc1ccc(F)c2ccccc12", "qualifier_symbol": "=", "MIC [µg/mL]": 8}
{"compound_string": "NCCNCC(CN)(Cc1ccccc1Br)Cc1ccccc1Br", "qualifier_symbol": "=", "MIC [µg/mL]": 16}
{"compound_string": "N=C(N)NCCNC(=O)C(CNC(=N)N)(Cc1ccc(F)c2ccccc12)Cc1ccc(F)c2ccccc12", "qualifier_symbol": "=", "MIC [µg/mL]": 32}
{"compound_string": "NCCNCC(CN)(Cc1cc(Br)cc(Br)c1)Cc1cc(Br)cc(Br)c1", "qualifier_symbol": "=", "MIC [µg/mL]": 16}
{"compound_string": "N=C(N)NCCNC(=O)C(CNC(=N)N)(Cc1cc(Br)cc(Br)c1)Cc1cc(Br)cc(Br)c1", "qualifier_symbol": "=", "MIC [µg/mL]": 8}

* * *

Test: Selectivity index, ratio of EC50 for hemolytic activity against human RBC to MIC for antibacterial activity against Escherichia coli ATCC 25922
Assay type: toxicity
Conditions: human red blood cells (RBC)
Define the label as TRUE when selectivity ratio is strictly less than 7 and as FALSE in all remaining cases.

{"compound_string": "NCCNC(=O)C(CN)(Cc1cc(Br)cc(Br)c1)Cc1cc(Br)cc(Br)c1", "label_class": "FALSE"}
{"compound_string": "N#CC(Cc1ccccc1C(F)(F)F)(Cc1ccccc1C(F)(F)F)C(=O)NCCN", "label_class": "TRUE"}
{"compound_string": "NCCNCC(CN)(Cc1cc(Br)cc(Br)c1)Cc1cc(Br)cc(Br)c1", "label_class": "TRUE"}
{"compound_string": "NCCNC(=O)C(CN)(Cc1ccc(C(F)(F)F)cc1)Cc1ccc(C(F)(F)F)cc1", "label_class": "FALSE"}
{"compound_string": "NCCNC(=O)C(CN)(Cc1cccc2ccccc12)Cc1cccc2ccccc12", "label_class": "TRUE"}
{"compound_string": "NCCNC(=O)C(CN)(Cc1ccc(F)c2ccccc12)Cc1ccc(F)c2ccccc12", "label_class": "FALSE"}
{"compound_string": "N#CC(Cc1ccccc1F)(Cc1ccccc1F)C(=O)NCCN", "label_class": "TRUE"}
{"compound_string": "NCCNCC(CN)(Cc1ccccc1Br)Cc1ccccc1Br", "label_class": "FALSE"}
{"compound_string": "N#CC(Cc1ccc(C(F)(F)F)cc1)(Cc1ccc(C(F)(F)F)cc1)C(=O)NCCN", "label_class": "FALSE"}
{"compound_string": "NCCNC(=O)C(CN)(Cc1ccccc1Br)Cc1ccccc1Br", "label_class": "TRUE"}
{"compound_string": "N#CC(Cc1cc(C(F)(F)F)cc(C(F)(F)F)c1)(Cc1cc(C(F)(F)F)cc(C(F)(F)F)c1)C(=O)NCCN", "label_class": "FALSE"}
{"compound_string": "NCCNCC(CN)(Cc1cc(C(F)(F)F)cc(C(F)(F)F)c1)Cc1cc(C(F)(F)F)cc(C(F)(F)F)c1", "label_class": "TRUE"}
{"compound_string": "NCCNC(=O)C(CN)(Cc1ccccc1C(F)(F)F)Cc1ccccc1C(F)(F)F", "label_class": "FALSE"}
{"compound_string": "N=C(N)NCCNC(=O)C(CNC(=N)N)(Cc1cc(Br)cc(Br)c1)Cc1cc(Br)cc(Br)c1", "label_class": "FALSE"}
{"compound_string": "NCCNC(=O)C(CN)(Cc1cc(C(F)(F)F)cc(C(F)(F)F)c1)Cc1cc(C(F)(F)F)cc(C(F)(F)F)c1", "label_class": "FALSE"}
{"compound_string": "N=C(N)NCCNC(=O)C(CNC(=N)N)(Cc1ccc(F)c2ccccc12)Cc1ccc(F)c2ccccc12", "label_class": "FALSE"}
{"compound_string": "N=C(N)NCCNC(=O)C(CNC(=N)N)(Cc1cc(C(F)(F)F)cc(C(F)(F)F)c1)Cc1cc(C(F)(F)F)cc(C(F)(F)F)c1", "label_class": "FALSE"}
